experiment: Safety evaluation (body weight changes) in gastric cancer GA6201 model; type: in vivo, BALB/c nude mice; details: 60 mg/kg intraperitoneal QD×5/week×2 wks; Day 3
Experimental Readout: Body weights (g)
The answer is to be given in g; state only the numeric part.

Identify Body weights associated with the molecule O=P1(NCCCl)OCCCN1CCCl (stereo not shown) [Ifosfamide, reference compound] 25.5

---

test: Safety evaluation (body weight changes) in gastric cancer GA6201 model; assay type: in vivo, BALB/c nude mice; conditions: 5 mg/kg tail vein Q7D×3; Day 38
Would you kindly list Body weights for each of these compounds?

Identify Body weights associated with the compound O=[N+]([O-])c1ccc(C(OP(=O)(N2CC2)N2CC2)C(F)(F)F)cc1Oc1ccc(-c2ccc(F)cc2)c(F)c1 (centres unmarked) [AST] 25.7 g

Identify Body weights associated with the compound C[C@@H](OP(=O)(N1CC1)N1CC1)c1ccc([N+](=O)[O-])c(Oc2cccc(C(=O)N(C)C)c2)c1 [AST-3424] 26 g

---

assay: Safety evaluation (body weight changes) in pancreatic cancer PA1383 model; format: in vivo, Balb/nude female mice; conditions: 1 mg/kg i.v. QD×5, 2 days off, 2 weeks off, QD×5; Day 31
Experimental Readout: Body weights (g)
The answer is to be given in g; state only the numeric part.

Identify Body weights associated with the compound C[C@@H](OP(=O)(N1CC1)N1CC1)c1ccc([N+](=O)[O-])c(Oc2cccc(C(=O)N(C)C)c2)c1 [AST-3424] 23.1

---

test: Safety evaluation (body weight changes) in gastric cancer GA6201 model; format: in vivo, BALB/c nude mice; conditions: 2.5 mg/kg tail vein Q7D×3; Day 3
Experimental Readout: Body weights
Phrase the answer as number then unit, nothing more needed.

Identify Body weights associated with the molecule O=[N+]([O-])c1ccc(C(OP(=O)(N2CC2)N2CC2)C(F)(F)F)cc1Oc1ccc(-c2ccc(F)cc2)c(F)c1 (stereo not shown) 25.1 g

---

test: Safety evaluation (body weight changes) in pancreatic cancer PA1222 model; assay type: in vivo, BALB/c nude mice; conditions: 120 mg/kg i.p. QW×3; Day 24
Experimental Readout: Body weights (g)
The answer is to be given in g; state only the numeric part.

Identify Body weights associated with the compound Nc1ccn([C@@H]2O[C@H](CO)[C@@H](O)C2(F)F)c(=O)n1 [Gemcitabine, reference compound] 25.1

---

assay: Safety evaluation (body weight changes) in pancreatic cancer PA1222 model; type: in vivo, BALB/c nude mice; settings: 120 mg/kg i.p. QW×3; Day 0
Experimental Readout: Body weights (g)
The answer is to be given in g; state only the numeric part.

Identify Body weights associated with the molecule Nc1ccn([C@@H]2O[C@H](CO)[C@@H](O)C2(F)F)c(=O)n1 [Gemcitabine, reference compound] 24.1

---

assay: Safety evaluation (body weight changes) in gastric cancer GA6201 model; assay type: in vivo, BALB/c nude mice; conditions: 5 mg/kg tail vein Q7D×3; Day 14
Would you kindly list Body weights for each of these compounds?
The answer is to be given in g; state only the numeric part.

Identify Body weights associated with the compound O=[N+]([O-])c1ccc(C(OP(=O)(N2CC2)N2CC2)C(F)(F)F)cc1Oc1ccc(-c2ccc(F)cc2)c(F)c1 (centres unmarked) 25.2

Identify Body weights associated with the compound C[C@@H](OP(=O)(N1CC1)N1CC1)c1ccc([N+](=O)[O-])c(Oc2cccc(C(=O)N(C)C)c2)c1 25.4
